assay: Binding affinity was determined towards serotonin uptake site in presence of [3H]paroxetine radioligand in rat brain cortical homogenate; assay type: tissue-based
Each record here notes measured Kd.
Please append the unit to your numeric answer.

> print(dat)
                                   molecule  reported.property    result
1  CNC(C)Cc1ccc2c(c1)OCO2 (configuration not stated)                 Kd  0.123 nM

Then there is this molecule:
Quick note, Kd for NC1CCc2cc3c(cc2C1)OCO3 (configuration not stated) landed at 0.102 nM

====

target: UniProtKB P31652; assay: Binding affinity was determined towards serotonin uptake site in presence of [3H]paroxetine radioligand in rat brain cortical homogenate; format: tissue-based
REPORTED PROPERTY: Kd (pM)
// return numeric value only (unit: pM, not printed)

Quick note, Kd for NC1Cc2cc3c(cc2C1)OCO3 landed at 104

====

target: Sodium-dependent serotonin transporter (Rattus norvegicus, UniProt P31652); assay: Binding affinity was determined towards serotonin uptake site in presence of [3H]paroxetine radioligand in rat hippocampal homogenate; type: tissue-based, Hippocampus
Sequence (P31652 whole entry): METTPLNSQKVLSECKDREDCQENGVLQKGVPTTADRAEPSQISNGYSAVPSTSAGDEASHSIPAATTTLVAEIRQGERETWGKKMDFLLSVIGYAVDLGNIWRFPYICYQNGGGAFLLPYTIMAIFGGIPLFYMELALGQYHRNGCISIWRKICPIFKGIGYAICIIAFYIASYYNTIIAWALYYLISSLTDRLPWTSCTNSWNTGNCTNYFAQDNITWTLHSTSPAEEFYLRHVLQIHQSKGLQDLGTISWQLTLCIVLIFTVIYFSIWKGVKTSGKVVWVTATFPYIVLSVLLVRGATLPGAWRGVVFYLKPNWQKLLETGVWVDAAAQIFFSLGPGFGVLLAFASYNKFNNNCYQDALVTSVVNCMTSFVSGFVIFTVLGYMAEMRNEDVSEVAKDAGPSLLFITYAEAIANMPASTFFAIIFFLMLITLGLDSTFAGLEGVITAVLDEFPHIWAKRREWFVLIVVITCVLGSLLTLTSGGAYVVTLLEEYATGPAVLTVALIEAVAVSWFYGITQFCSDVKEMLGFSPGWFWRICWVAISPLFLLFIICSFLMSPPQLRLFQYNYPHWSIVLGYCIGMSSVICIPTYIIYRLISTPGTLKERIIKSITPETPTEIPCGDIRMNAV
REPORTED PROPERTY: pKd
Recall that pKd is obtained by taking minus log10 of the concentration measured in molar.

Quick note, pKd for NC1Cc2cc3c(cc2C1)OCO3 landed at 9.90

====

assay: Binding affinity was determined towards serotonin uptake site in presence of [3H]paroxetine radioligand in rat hippocampal homogenate; type: tissue-based, Hippocampus
Each record here notes measured Kd.
// return numeric value only (unit: nM, not printed)

> print(dat)
                                   compound  result
1  CNC(C)Cc1ccc2c(c1)OCO2 (configuration not stated)   0.195

Quick note, Kd for NC1CCc2cc3c(cc2C1)OCO3 (configuration not stated) landed at 0.118
